- system-under-test: Peroxisome proliferator-activated receptor gamma (Homo sapiens, UniProt P37231)
- Sequence (P37231 whole entry): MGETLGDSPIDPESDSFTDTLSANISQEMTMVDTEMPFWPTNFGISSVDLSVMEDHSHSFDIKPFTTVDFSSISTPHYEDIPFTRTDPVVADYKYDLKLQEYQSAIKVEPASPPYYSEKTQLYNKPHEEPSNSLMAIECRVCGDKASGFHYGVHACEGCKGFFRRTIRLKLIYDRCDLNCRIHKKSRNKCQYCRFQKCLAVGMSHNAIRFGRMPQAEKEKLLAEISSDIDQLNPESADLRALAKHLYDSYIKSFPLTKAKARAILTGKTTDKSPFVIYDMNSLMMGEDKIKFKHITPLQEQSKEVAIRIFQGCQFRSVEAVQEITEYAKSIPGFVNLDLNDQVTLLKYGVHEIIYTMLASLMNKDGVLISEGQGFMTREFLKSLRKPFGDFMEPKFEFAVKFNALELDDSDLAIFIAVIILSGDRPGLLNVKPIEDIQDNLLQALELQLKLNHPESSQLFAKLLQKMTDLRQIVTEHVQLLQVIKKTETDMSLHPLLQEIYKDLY
- assay-procedure: Agonist activity at PPARgamma expressed in HepG2 cells co-expressing PPRE assessed as transcriptional activation after 24 hrs by luciferase reporter gene assay
Exercise: for every item that follows, state its recorded EC50.
Numbers only, in nM.

Cc1ccc(S(=O)(=O)Oc2cc(OCc3ccc(C(F)(F)F)cc3)c(/C=C3\SC(=O)NC3=O)cc2Br)cc1	340

Next:
Lab note: measured EC50 of `O=C1NC(=O)/C(=C/c2cc(Br)ccc2OCc2cc(C(F)(F)F)cc(C(F)(F)F)c2)S1` was 870
